// provenance: patent US20240270826A1

Biological target: T1, SARS-CoV-2 S on CHO-S cells (SARS-CoV-2, UniProt P0DTC2 14-1273)
T1 construct: whole, on cells
Assay: flow cytometry, CHO-S cells
Entries and their Bmax
Reply with the value as a number alone.

Example entries begin here.
# Binder, Assay readout, Value measured
rows = [
    ("NRCoV2-MRed06 VHH-Fc (Fc fusion, bivalent VHH-Fc) EVQLVESGGGLVQAGGSLRLSCAASGFTLAYYAIGWFRQAPGKEREGVSCISSSDGSAHYADSVKGRFTISRDNAKNTVSLQMNSLKPEDTAVYYCATDSFSSCSDYESGMDFWGKGTQVTVSS", "Bmax", 9020),
    ("NRCoV2-SR02 VHH-Fc (Fc fusion, bivalent VHH-Fc) EVQLVDSGGGLVQAGGSLRLSCTASEFTLNYYSIGWFRQSPGKEREGVSCIRYSGGGIDYADSVKGRFTISRDNAKNTVYLTMNSLKPEDTAVYYCAADRLYSRACPTAGGRNYWGQGTQVTVSS", "Bmax", 14400),
    ("NRCoV2-MRed04 VHH-Fc (Fc fusion, bivalent VHH-Fc) EVQLVESGGGLVQPGRSLRLSCAASGNSFSISTMGWFRQAPGKERELVASIWSDTTTSYADSVKGRFTISTDNTRTKVYLQMSSLNPEDTAVYYCAADRGFVVRGQYDYWGQGTQVTVSS", "Bmax", 14900),
    ("NRCoV2-MRed03 VHH-Fc (Fc fusion, bivalent VHH-Fc) EVQLVESGGGLVQPGGSLRLSCAAIGFTLDYYAIGWFRQAPGKEREGVSCISSSDGSTYYADSVKGRFTISRDNAKNTVYLQMNSLKPEDTAVYYCATDAFATCDSWYAQIAQYDFRGQGTQVTVSS", "Bmax", 12000),
]

Using the record for NRCoV2-14 VHH-Fc (Fc fusion, bivalent VHH-Fc) EVQLVSSGGGLVQAGGSLRLSCEASGTTFSHYAVGWYRQAPGKQREWVASISVFGSTTYGGSVAGRFTISRDNDKNTVDLQMNSLKPEDTAVYYCHAVNADIGGDYWGQGTQVTVSS , report its Bmax.
18800

Fill blank: measured Bmax of the binder NRCoV2-MRed20 VHH-Fc (Fc fusion, bivalent VHH-Fc) EVQLVESGGGSVQAGGSLRLSCAASGLSFSSYDMGWFRQAPGKEREFVAAIRESGSGTYYADSVKGRFTISRDNAKNTVYLQVSSLKPEDTAVYTCAAKPPFYGSGTYSTPRAYLYWGQGTQVTVSS is ____.
6660

Quick one: Bmax for NRCoV2-07 VHH-Fc (Fc fusion, bivalent VHH-Fc) QVQLVQSGGGLVQPGGSLRLSCAASGVTLDYYAIGWFRQAPGKEREAVSCISSNGRRNHYVASVRGRFTISRDNAKSTVYLQMNSLKPEDTAVYYCAAVQDVHGDNYYCTSPNEYNVWGQGTQVTVSS ?
10600

// Bmax lookup, key: NRCoV2-SR03 VHH-Fc (Fc fusion, bivalent VHH-Fc) AVQLVDSGGGLVQAGGSLRLSCAASGSIFSNNHMGWYRQAPGKQRELVAAISSGGKTNYADFAKGRFTISRDNAKNMVYLQMNSLKPEDTAVYYCNRGGWEYRSSYYIMGPHWGQGTQVTVSS
19900
